Collected pIC50 for Sterol O-acyltransferase 1 (Rattus norvegicus, UniProt O70536) across several studies; molecules listed below.
pIC50: −log10 of the molar value.
Criterion: pIC50 meeting or surpassing 6. Met: YES. Not met: NO.

Take a look at these entries with their results.
MOLECULE: CCCCCCCN(CCCCCS(=O)(=O)c1nc(-c2ccccc2)c(-c2ccccc2)[nH]1)C(=O)Nc1ccc(F)cc1F
CLASS: YES
//
MOLECULE: COc1cc(OC)c(OC(=O)NS(=O)(=O)Oc2c(C(C)C)cccc2C(C)C)c(OC)c1
CLASS: NO
//
MOLECULE: O=C(Cn1c2c(c(=O)n3nc(-c4ccccc4)cc13)CN(C1CCCCC1)C2=O)c1ccccc1
CLASS: NO
//
MOLECULE: COc1cccc(-c2nc(SCC3C[C@](C)(O)CC(=O)O3)[nH]c2-c2cccc(OC)c2)c1 (some centres undefined)
CLASS: YES
//
MOLECULE: CCCCn1c(=O)c(NC(=O)Nc2c(C(C)C)cc(N)cc2C(C)C)c(-c2cccc(OCCCO)c2)c2cccnc21.Cl.O
CLASS: YES
//
MOLECULE: CCCCCCCCS(=O)(=O)c1cc(-c2ccccc2)c(-c2ccccc2)nn1
CLASS: NO

Prompt: Does "CCCCCCCCCCCCOC(=O)NS(=O)(=O)Nc1c(C(C)C)cccc1C(C)C" have a reported pIC50 of at least 6?
Response: NO

Prompt: Entry CC1=CC(=O)OC(CSc2nc(-c3ccc(C)cc3)c(-c3ccc(C)cc3)[nH]2)C1 (centres undefined) : is its pIC50 no less than 6?
Response: YES

Prompt: Is pIC50 at least 6? Consider CCCCCCCC[S+]([O-])c1cc(-c2ccccc2)c(-c2ccccc2)nn1 (centres undefined)
Response: NO

Prompt: Would you say "O=C1c2c(c(=O)n3nc(-c4ccccc4)cc3n2Cc2ccccc2)CN1Cc1ccccc1" shows pIC50 at minimum 6?
Response: NO

Prompt: For this molecule, is measured pIC50 6 or higher? "CCCCCCCCCS(=O)(=O)c1cc(-c2ccccc2)c(-c2ccccc2)nn1"
Response: NO

Prompt: Tell me whether pIC50 is at least 6 here: "CN(C(=O)Nc1cnc2ccc(Cl)cc2c1-c1ccccc1)c1ccc(F)cc1F"
Response: NO

Prompt: hey, is pIC50 for this one >= 6? "CC(C)c1cccc(C(C)C)c1NC(=O)NS(=O)(=O)N1CCCC1"
Response: NO

Prompt: Threshold query (pIC50 >= 6) on "Cc1ccccc1-c1c(NC(=O)Nc2ccc(F)cc2F)cnc2ccc(Cl)cc12"
Response: YES

Prompt: Could you tell me if the measured pIC50 of "CCCCCCCCN(C)S(=O)(=O)NC(=O)Nc1c(C(C)C)cccc1C(C)C" reaches 6 or more?
Response: NO

Prompt: Can CC1=CC(=O)OC(CSc2nc(-c3ccc(F)cc3)c(-c3ccc(F)cc3)[nH]2)C1 (centres undefined) be said to have pIC50 at or above 6?
Response: YES

Prompt: Hi team, for "CC(C)c1cccc(C(C)C)c1NS(=O)(=O)NC(=O)N(Cc1ccccc1)Cc1ccccc1" , is the recorded pIC50 at or above 6?
Response: NO

Prompt: Could you verify whether the entry "Cn1ccnc1SCCCCSc1nc(-c2ccccc2)c(-c2ccccc2)[nH]1" shows pIC50 of no less than 6?
Response: YES

Prompt: Is the recorded value of pIC50 equal to or greater than 6 for this molecule? "O=C1c2c(c(=O)n3nc(-c4ccccc4)cc3n2C/C=C/c2ccccc2)CN1C1CCCCC1"
Response: NO

Prompt: Kindly determine if pIC50 recorded for "CCCCCCOS(=O)(=O)NC(=O)Nc1c(C(C)C)cccc1C(C)C" is above or exactly 6.
Response: NO

Prompt: # check: pIC50 of "O=C(O)CCCCCCCCSc1cc(-c2ccccc2)c(-c2ccccc2)nn1" is greater than or equal to 6
Response: NO

Prompt: Dear colleague, could you confirm whether Nc1ccc(C(Cc2ccccc2)NC(=O)C(c2ccccc2)c2ccccc2)cc1 (centres undefined) has pIC50 at or above 6?
Response: NO
